Test system: MS2 coat protein
experimental-protocol: apparent KD of MS2 coat protein; designed switch direction (-1 OFF switch, 1 ON switch): 1; higher = weaker reporter binding
condition-label: input ligand: none
Entries get a class label from measured apparent KD of MS2 coat protein. See ranges: range 1 (below 50 nM), range 2 (50 nM to below 300 nM), range 3 (300 nM or more)

Some solved cases for reference:
1. AAAAAACAUGAGGAUCACCCAUGUCAAAAGACAUGAGGAUAUGUACAGACUUCGGUCUGUACAGAAGGCAUGUAAA [SS1 - 1015] (Eterna round: R96, puzzle: Same State 1); range 3
2. UAUCCAUAGAUAGGAUAUCAGUAUACAUGAGGAUCACCCAUGUUAUACUUGGUUUUAAGUUAGUCUGAGAAGGAUCUUGAUGAA [SameState NG2 #4] (Eterna round: R96, puzzle: Same State NG 2); range 1
3. CAUCCCUCCACAGGAUAUCGACCGAUAAAACGGCGAGAAGGGUGGCCACAUGAGGAUCACCCAUGUGGAAUUGGAUGAGCUACA [Enlaed] (Eterna round: R96, puzzle: Same State NG 1); range 2
4. GUAGCAUACCGAGGAUAUUCAUAUUACAUGAGGAUCACCCAUGUUUUAGGCCGAUUACGGCCUUGGGAGAAGGCGGAAUGCUAC [Xeonanis - 20 Mod23] (Eterna round: R96, puzzle: Same State NG 2); range 1
5. GUCCAAAACACAGGAUAUCCCAGUCAUGAACUGGGAGAAGGGUGGCCACAUGAGGAUCACCCAUGUGAAGUGCGAGAGGCACGA [Arquarais] (Eterna round: R96, puzzle: Same State NG 1); range 3

Task item: Class (by measured apparent KD of MS2 coat protein) for AGUCCAGCCUGAGCUGGACAAUAGCAUGUACAUGAGGAUCACCCAUGUCAUGUACAAGCUUUUUGCUCGUCUUAAAA [JL zipper 48] (Eterna round: R96, puzzle: Sensor for hsa-mir-208a)
Reply: range 2

Task item: Class (by measured apparent KD of MS2 coat protein) for AUAAAACAUGAGGAUCACCCAUGUCAACAAAGUCGAGGAUAUGGGCAAAUAAAAUAAGAACCAGAAGGCGAAUUAU [salish99_ss1_r3_036] (Eterna round: R96, puzzle: Same State 1)
Reply: range 2

Task item: Class (by measured apparent KD of MS2 coat protein) for CUCAACAACACAGGAUAUCCAGGGAAAAGACCUGGAGAAGGGUGACCAACAUGAGGAUCACCCAUGUGACAGCCAGGCUGUCUG [Esisiszaon] (Eterna round: R96, puzzle: Same State NG 1)
Reply: range 1

Task item: Class (by measured apparent KD of MS2 coat protein) for AACAAUCUAUCUGAGGAUAUCAUGUCAAAGACAUGAGGAUCACCCAUGUACCAGGAAACUGGUUAUGAGAAGGCAGAUAGAUUGA [SS2: 1115] (Eterna round: R96, puzzle: Same State 2)
Reply: range 3
